- protocol.description: Aqueous solubility of compound at pH 7.4
- Type: physicochemical
- test.context: buffer
measured.metric: solubility
Answer shape: numeric part, then the unit.

Reported solubility for `NC(=O)c1cccc2c(N[C@H](CN3CCC3)c3ccc(Cl)c(C(F)(F)F)c3)ncnc12` : what is it?
17 µg/mL

---

- protocol.description: in vivo
- test.context: rat
measured.metric: clearance

Reported clearance for `NC1(C(=O)N[C@@H](CCO)c2ccc(Cl)cc2)CCN(c2ncnc3[nH]ccc23)CC1` : what is it?
37 mL/min/kg

---

- protocol.description: Microsomal stability in human liver microsomes assessed as half life
- Format: ADME, Microsome
measured.metric: half-life

Reported half-life for `Nc1ncccc1-c1nc2ccc(-c3ccccc3)nc2n1-c1ccc(C2(N)CCC2)cc1` : what is it?
55 min

---

Parameter IC50: see the listing below.
- protocol.description: Antiproliferative activity against human KHOS-240S cells assessed as reduction in cell viability incubated for 24 hrs by MTT assay
- Format: functional, cell-based
Supply the numeric figure in µM, leaving out any unit text.

Reported IC50 for `Cn1nccc1-c1ccc(C(=O)N[C@@H]2CNCC[C@H]2c2ccc(F)c(F)c2)c(F)c1` : what is it?
7.47

Reported IC50 for `NC1(C(=O)N[C@@H](CCO)c2ccc(Cl)cc2)CCN(c2ncnc3[nH]ccc23)CC1` : what is it?
40.4

---

- protocol.description: Clearance in Beagle dog at 0.5 mg/kg, iv
- Format: ADME, organism-based, Canis lupus familiaris
- test.context: in vivo
measured.metric: clearance (mL/min/kg)
Supply the numeric figure in mL/min/kg, leaving out any unit text.

Reported clearance for `NC1(C(=O)NCc2ccc(Cl)cc2)CCN(c2ncnc3[nH]ccc23)CC1` : what is it?
2

---

- protocol.description: Oral bioavailability in CD-1 mouse at 5 mg/kg measured for 24 hrs by LC-MS/MS analysis
- Format: ADME, organism-based
- test.context: in vivo
measured.metric: bioavailability (%)
Supply the numeric figure in %, leaving out any unit text.

Reported bioavailability for `NC(=O)c1cccc2c(N[C@H](CN3CCC3)c3ccc(Cl)c(C(F)(F)F)c3)ncnc12` : what is it?
10

---

- protocol.description: Volume of distribution at steady state in rat at 1 mg/kg, iv
- Format: ADME, organism-based
- test.context: in vivo, read-out: Vdss
measured.metric: Vd (L/kg)
Supply the numeric figure in L/kg, leaving out any unit text.

Reported Vd for `NC1(C(=O)NCc2ccc(Cl)cc2)CCN(c2ncnc3[nH]ccc23)CC1` : what is it?
3.1

---

- protocol.description: Volume of distribution at steady state in dog at 1 mg/kg, iv
- Assay type: ADME, organism-based, Canis lupus familiaris
- test.context: in vivo, read-out: Vdss
measured.metric: Vd (L/kg)
Supply the numeric figure in L/kg, leaving out any unit text.

Reported Vd for `NC1(C(=O)NCc2ccc(Cl)cc2)CCN(c2ncnc3[nH]ccc23)CC1` : what is it?
2
